- assayed.target: GlcNAc(b1-2)[GlcNAc(b1-4)]Man(a1-3)[GlcNAc(b1-4)][GlcNAc(b1-2)Man(a1-6)]Man(b1-4)GlcNAc(b1-4)GlcNAc
- experimental.protocol: glycan array binding signal (z-score within array); higher = stronger binding
- test.context: glycan notation: IUPAC condensed, linker removed
About 410 targets per protein were measured; listed, in parts, are those with the strongest signals and a random draw of the rest.
Would you mind telling me the reported glycan array binding signal (z-score) of each entry?
I'd appreciate a reply containing only the number, no unit.

Task: Need glycan array binding signal (z-score), item SP16665A-bot-344-23-344 (Bacteroides ovatus) (protein) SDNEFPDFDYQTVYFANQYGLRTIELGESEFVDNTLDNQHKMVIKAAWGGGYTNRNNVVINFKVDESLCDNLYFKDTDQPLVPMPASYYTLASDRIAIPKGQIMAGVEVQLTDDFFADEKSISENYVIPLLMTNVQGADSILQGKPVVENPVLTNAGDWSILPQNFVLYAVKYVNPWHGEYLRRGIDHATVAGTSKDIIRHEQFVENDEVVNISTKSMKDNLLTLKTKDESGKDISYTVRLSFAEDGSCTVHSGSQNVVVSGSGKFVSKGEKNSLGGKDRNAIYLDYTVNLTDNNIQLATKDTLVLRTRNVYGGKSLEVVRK
Result: 1.11

Task: Need glycan array binding signal (z-score), item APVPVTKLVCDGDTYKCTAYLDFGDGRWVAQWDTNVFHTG [PhoSpL (Pholiota squarrosa)]
Result: -0.113

Task: Bench note: what glycan array binding signal (z-score) did AT5G24760(45) (Arabidopsis thaliana), Q8LEB2 (protein) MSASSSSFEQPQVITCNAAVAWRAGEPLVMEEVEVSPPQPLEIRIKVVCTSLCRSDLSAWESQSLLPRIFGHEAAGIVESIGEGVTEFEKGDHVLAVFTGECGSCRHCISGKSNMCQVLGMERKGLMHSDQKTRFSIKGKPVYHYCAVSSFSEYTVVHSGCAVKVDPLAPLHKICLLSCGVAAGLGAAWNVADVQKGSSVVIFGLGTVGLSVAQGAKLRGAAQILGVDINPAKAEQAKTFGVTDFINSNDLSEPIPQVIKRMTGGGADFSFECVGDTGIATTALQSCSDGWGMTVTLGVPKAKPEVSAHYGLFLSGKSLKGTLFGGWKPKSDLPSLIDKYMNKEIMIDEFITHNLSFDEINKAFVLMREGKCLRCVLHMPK show?
Result: -0.932

Task: Which glycan array binding signal (z-score) is reported for this binder? KISKRILTGKK [NK11 (Sus scrofa)]
Result: -0.207

Task: Which measured glycan array binding signal (z-score) value corresponds to Gal 7 (Homo sapiens) (protein) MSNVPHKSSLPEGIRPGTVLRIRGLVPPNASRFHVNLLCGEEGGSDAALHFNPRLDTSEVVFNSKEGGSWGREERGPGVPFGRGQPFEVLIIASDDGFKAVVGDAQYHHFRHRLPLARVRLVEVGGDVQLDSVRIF ?
Result: -0.311

Task: Consider the binder shown here: XCL (Xerocomus chrysenteron) (protein) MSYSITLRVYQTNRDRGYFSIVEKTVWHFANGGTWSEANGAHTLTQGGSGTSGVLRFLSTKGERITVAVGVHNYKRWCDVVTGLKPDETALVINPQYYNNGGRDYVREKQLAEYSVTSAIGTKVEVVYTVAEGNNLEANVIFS What is its recorded glycan array binding signal (z-score)?
Result: 4.92
